experiment: protein stability index of a GFP-peptide fusion (GPS, HEK-293T) (PSI 1-6); higher = more stable; settings: treatment: DMSO; c terminus: a fixed tail appended;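 also: 24-mer peptide tiles fused after GFP, lentivirally expressed, FACS-sorted into six equal bins by GFP/DsRed ratio, decoded by Illumina sequencing, PSI is the read-weighted mean bin number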
# protein stability index >= 3 gives Satisfied, anything below gives Not satisfied

Previously resolved entries follow.
• IRKTVKRLRKHQHVGDFARDLAAR [ELOA2] = Satisfied
• DYFISYGIEHAQCVPPSEFSEPSF [ETS1] = Not satisfied
• EEKAFESVIEPVQESSFRSRKIAV [MIA2] = Satisfied
• LRKYSFDGLDLDWEYPGSQGSPAV [CHIT1] = Not satisfied
• LTYINEDRISTTFRLTTLLMSGCS [PLK2] = Not satisfied
• DEDDVDQELANIDPTWIESPKTNG [SRPK2] = Satisfied

Now take the following sequence into account.
Exam item: # bool: protein stability index of SGRVKRERDREREPEAASSRGSPV [USP39] >= 3
Marked response: Satisfied

---

assay: protein stability index of a GFP-peptide fusion (GPS, HEK-293T) (PSI 1-6); higher = more stable; conditions: treatment: MLN4924 1 uM, 8 h; c terminus: a fixed tail appended
Could you label it 1 (yes) if measured protein stability index is 4 or higher, and 0 (no) otherwise?

• DHPGIHEPLEPEVKYVGNMHGNEA [CPN1] = 1 (yes)
• DLSDNRNEDPLVLLAWRCTKLSLL [FBXO33] = 0 (no)
• RQVLCEKCKSTLSPPEASPGPPAA [PWWP2B] = 1 (yes)
• ATSVTVPGAGVPSGSGGTVAPATM [ZBTB22] = 1 (yes)
• ERLNKEYQEIFQQLQRSWVKMDQK [TRIM43] = 0 (no)

Exam item: Assess whether reported protein stability index for FRALKRPLQFLGLFENSLCRLTHI [ZER1] sits at 4 or higher.
Marked response: 0 (no)

Exam item: Hi team, for NSNLEEPLNPKPHKKKSPGEKPHR [ZNF449] , is the recorded protein stability index at or above 4?
Marked response: 1 (yes)

Exam item: Can NVLVDPSARIGQNCSIGPNVSLGP [GMPPB] be said to have protein stability index at or above 4?
Marked response: 0 (no)

Exam item: Can SITFTTGLEAPRDLEAKEVTPRTA [TNXB] be said to have protein stability index at or above 4?
Marked response: 1 (yes)

---

test: protein stability index of a GFP-peptide fusion (GPS, HEK-293T) (PSI 1-6); higher = more stable; settings: treatment: DMSO; c terminus: a fixed tail appended
quantity: protein stability index
Answer with a number only.

• NGAGVTVLRREISELRTKVQEQQK [FBXO28] = 4.11

Exam item: For the sequence SPMYFFLASLSFIDTVYSTAFAPK [OR4A15] , what protein stability index is on record?
Marked response: 3.01

Exam item: Sample KQQRNEVSFVIHNLPIIAKMAAVS [SEPHS2] — what was its protein stability index?
Marked response: 2.51

Exam item: Query (sequence): HMEALEIAANLENKATNTDHLTTV [C8orf76] ; field requested: protein stability index
Marked response: 4.76

Exam item: Could you share which protein stability index value was measured for LIKKKKEELEAKRLQCPFEQELLR [FAM107A] ?
Marked response: 3.66

Exam item: Which protein stability index is listed for MINSTSTQPPDESCSQNLLITQQI [P2RY14] ?
Marked response: 4.24

Exam item: May I ask what protein stability index has been recorded for NPALEGLTQPLQGGTPHCEPCQLP [DNAAF3] ?
Marked response: 4.89

Exam item: Item under review: KYENELALRQSVEADINGLRRVLD [KRT13] . Reported protein stability index?
Marked response: 3.57

Exam item: Which measured protein stability index value corresponds to AEEKEQLLHNDEYQETMVESTFMY [USP39] ?
Marked response: 4.69

Exam item: Return reported protein stability index; argument: KKDKCGRTPLHYAAANCHFHCIET [ANKRD44]
Marked response: 2.5

Exam item: What value of measured protein stability index is listed for KSSLIWSYPAGSLTFPVRPFFYTG [TRIM43] ?
Marked response: 2.19

Exam item: Please give the measured protein stability index for this sequence: ETDEDEEEGDEQQRLLNTPRRKKL [GMCL1]
Marked response: 5.6

Exam item: Query (sequence): CEFSSERGPRMCRFIRERDRAVND [CDC25B] ; field requested: protein stability index
Marked response: 3.51

Exam item: Quick check: protein stability index of YTMLLGRPPFETTNLKETYRCIRE [PLK2] ?
Marked response: 2.32

Exam item: Entry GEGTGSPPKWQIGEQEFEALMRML [ADD1] : reported protein stability index = ?
Marked response: 3.29

Exam item: // query protein stability index value for entry RGDPLGGCQVSPEGYAHLTHLLMG [HDAC6]
Marked response: 2.35

Exam item: Which protein stability index is reported for this sequence? LGSDYEQPLEVKNNSNLQRMGSSE [CDC25A]
Marked response: 5.01

---

Known protein stability index of a selection of sequences
test: protein stability index of a GFP-peptide fusion (GPS, HEK-293T) (PSI 1-6); higher = more stable; details: treatment: MLN4924 1 uM, 8 h; c terminus: a fixed tail appended
Form field (numeric): enter value without unit.

Reference set, count: 5
- GRKPERRRLKTTRLKEYTIKSHSS [DAPK3]: 4.06
- LPTDGSTGVELAPRSAEPGYLVTK [PCDHGA10]: 4.66
- SFGVDEEERVRVLQGVRLSENVVN [CHCHD6]: 4.59
- MIHGRSVLHIVASLIILHLSGATK [NETO1]: 3.02
- AKLAINQGMEVDLVTGLAIEEACY [AUH]: 2.32

Exam item: What protein stability index value was documented for this sequence, PCSVIRPILKRLERPQDRDTPVQN [CDC25B] ?
Marked response: 4.51

Exam item: Give its protein stability index value. Item: GSGADRIYDLNIPAFVKFAYVAER [NCK2]
Marked response: 2.36

---

assay: protein stability index of a GFP-peptide fusion (GPS, HEK-293T) (PSI 1-6); higher = more stable; settings: treatment: MLN4924 1 uM, 8 h; c terminus: a fixed tail appended
quantity: protein stability index
Lab note: record just the number, no unit beside it.

• CHPDDQFTTSILRHWCMKHDELLA [INTS3] = 3.06
• SPQEDGQIMFDVEMHTSRDHSSQS [BNIP3L] = 5.21
• RMIFKLFSQETVMKFVPRYSLVLE [APMAP] = 2.51
• PYAMKPIDYYTETKILQERAVLGA [NSDHL] = 3.06
• WEEAAPGRAVEHAMFLGDAAAHWY [MYORG] = 3.15
• ATQQARKRNFISSKSKQPAGHRRP [C22orf31] = 4.71
• ALMHTLQRHRDILQVIYWARDVFI [GOSR1] = 2.26
• KLLQGEEERLKLSPSPSSRVTVSR [LMNB1] = 4.13

Exam item: # query: protein stability index of entry ADSLDFDETFLATSFLQHPWDESG [FOXJ1]
Marked response: 4.08

---

experiment: protein stability index of a GFP-peptide fusion (GPS, HEK-293T) (PSI 1-6); higher = more stable; settings: treatment: DMSO; c terminus: a fixed tail appended
quantity: protein stability index
Lab note: jot the number down without any unit.

Example entries and their recorded answers appear below.
• VLIVDWDVHHGQGTQFTFDQDPSV [HDAC6] = 2.32
• EFKADAQLLLHNTVIFYGADSEQA [ZMYND11] = 3.06
• NNKLKLQQKLVIDTVTEVTARMEM [CBY2] = 2.94

Next sequence, please.
Exam item: # get_value(readout='protein stability index', item= NPRAPVIIYKQTKGGVQNFNKDLV [CEP70] )
Marked response: 2.52

---

test: protein stability index of a GFP-peptide fusion (GPS, HEK-293T) (PSI 1-6); higher = more stable; settings: treatment: DMSO; c terminus: a fixed tail appended
quantity: protein stability index
Provide a numeric answer; units are not to be included.

* RGTHLWEFIRDILIHPELNEGLMK [ELF3] | 2.54
* QKENVFKCDSLKEECIPEHMVRES [FAN1] | 4.56
* GPWSCENFNPLLVAGGVAVAAIAL [CEND1] | 3.34
* PIAPEVEDPEENPYGPPPDAVQTS [RBBP5] | 5.56
* SNSCQDSTDTESNNEEQRSGLIYL [IKZF1] | 4.67
* MDYDSYQHYFYDYDCGEDFYRSTA [MYCL] | 2.75
* KASGKNKHFKVQLVDNVYCIGQRR [NCK2] | 3.06
* GELRSKSGHKLYIFLFQDILVLTR [NET1] | 2.5

Exam item: Dear colleague, I am looking for the recorded protein stability index of the following sequence: RYALQLQQIQGLISSIEAQLSELR [KRT13]
Marked response: 3.17

Exam item: I would be grateful if you could share the reported protein stability index for GLVKKYMNSLLIGELSPEQPSFEP [FADS1] .
Marked response: 2.25

Exam item: Bench note: what protein stability index did EEEGGEEEEEAAMYEEEMEREEIT [FAM50A] show?
Marked response: 5.6

Exam item: Param item = EQLSGAGYRVSAALEEADKMFLRT [EID1] ; retrieve measured protein stability index.
Marked response: 3.72

Exam item: Find the recorded protein stability index belonging to DPDECGSDYISEFRFAPNHTKELE [EPB41L3] and report it.
Marked response: 2.91

Exam item: Query: protein stability index; subject: MDLRTAVYNAARDGKLQLLQKLLS [FEM1A]
Marked response: 2.21
